# TARGET ENTITY: Prp8 intein (Cryptococcus gattii, UniProt E6R027)
# Sequence (E6R027 entry or part of it): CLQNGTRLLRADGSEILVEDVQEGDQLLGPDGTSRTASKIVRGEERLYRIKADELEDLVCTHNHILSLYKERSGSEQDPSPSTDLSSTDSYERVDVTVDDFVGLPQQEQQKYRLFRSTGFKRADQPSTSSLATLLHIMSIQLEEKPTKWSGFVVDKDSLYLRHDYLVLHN
# ASSAY TEXT: Split Cys-free (Cf) GFP-Prp8 intein splicing assay
# Format: biochemical
# STUDY CONDITIONS: read-out: IC50 CfGFP-Prp8 (converted)
In this section we review reported IC50 values for a set of compounds.
OBSERVABLE: IC50 (µM)

compound=O=C(Nc1ccc(Br)cc1)c1nnsc1S(=O)(=O)c1ccc(Cl)cc1 observable=IC50 data_value=33.1
compound=O=C(Nc1cc(F)cc(Cl)c1)c1nnsc1S(=O)(=O)c1ccc(Cl)cc1 observable=IC50 data_value=32.9
compound=O=C(Nc1ccc(Cl)c(F)c1)c1nnsc1S(=O)(=O)c1ccc(Cl)cc1 observable=IC50 data_value=34.1
compound=O=C(Nc1ccccc1)c1nnsc1S(=O)(=O)c1ccc(Cl)cc1 observable=IC50 data_value=38.4
compound=O=C(Nc1ccc(F)cc1)c1nnsc1S(=O)(=O)c1ccc(F)c(F)c1 observable=IC50 data_value=32.8
compound=O=C(Nc1cc(C(F)(F)F)cc(C(F)(F)F)c1)c1nnsc1S(=O)(=O)c1ccc(Cl)cc1 observable=IC50 data_value=37.9
compound=O=C(Nc1ccc(F)c(F)c1)c1nnsc1S(=O)(=O)c1ccc(Cl)cc1 observable=IC50 data_value=33.5
compound=O=C(Nc1cc(F)c(F)c(F)c1)c1nnsc1S(=O)(=O)c1ccc(Cl)cc1 observable=IC50 data_value=31.8
compound=O=C(Nc1ccc(F)cc1)c1nnsc1S(=O)(=O)c1ccc(Cl)c(Cl)c1 observable=IC50 data_value=32.6
compound=Cc1ccc(NC(=O)c2nnsc2S(=O)(=O)c2ccc(Cl)cc2)cc1 observable=IC50 data_value=35.2
compound="O=C(Nc1ccc(F)cc1)c1nnsc1[S+]([O-])c1ccc(Cl)c(Cl)c1 (stereo not drawn)" observable=IC50 data_value=19.8
compound=O=C(Nc1cc(F)cc(C(F)(F)F)c1)c1nnsc1S(=O)(=O)c1ccc(Cl)cc1 observable=IC50 data_value=32.8
compound=O=C(Nc1c(F)cc(F)cc1F)c1nnsc1S(=O)(=O)c1ccc(Cl)cc1 observable=IC50 data_value=34.3
compound="Cc1ccc(NC(=O)c2nnsc2[S+]([O-])c2ccc(Cl)cc2)cc1 (stereo not drawn)" observable=IC50 data_value=47.3
compound=O=C(Nc1ccc(F)cc1)c1nnsc1S(=O)(=O)c1cccc(C(F)(F)F)c1 observable=IC50 data_value=35
compound=O=C(Nc1ccc(F)cc1)c1nnsc1S(=O)(=O)c1ccc(Cl)cc1Cl observable=IC50 data_value=31.9
compound="O=C(Nc1c(F)cc(F)cc1F)c1nnsc1[S+]([O-])c1ccc(Cl)cc1 (stereo not drawn)" observable=IC50 data_value=27.4
compound=O=C(Nc1ccccc1F)c1nnsc1S(=O)(=O)c1ccc(Cl)cc1 observable=IC50 data_value=28.3

###

# TARGET ENTITY: Prp8 intein (Cryptococcus gattii, UniProt E6R027)
# ASSAY TEXT: Split GFP-Prp8i intein splicing assay
# Assay type: biochemical
# STUDY CONDITIONS: split GFP-Prp8 intein splicing
pIC50: −log10 of the molar value.
OBSERVABLE: pIC50

molecule=O=C(NCc1ccc(F)cc1)c1ncsc1S(=O)(=O)c1ccc(Cl)cc1 observable=pIC50 qual=< data_value=4.30
molecule=O=C(NCc1ccc(F)cc1)c1nnsc1S(=O)(=O)c1ccc(Cl)cc1 observable=pIC50 qual== data_value=5.80
molecule="N.N.[Cl][Pt][Cl] [cisplatin, reference compound]" observable=pIC50 qual== data_value=5.17
molecule="O=C(Nc1ccc(F)cc1)c1nnc([S+]([O-])c2ccc(Cl)cc2)s1 (stereo not drawn)" observable=pIC50 qual== data_value=5.35
molecule=O=C(Nc1cccc(F)c1)c1ncsc1S(=O)(=O)c1ccc(Cl)cc1 observable=pIC50 qual=< data_value=4.30
molecule=O=C(Nc1ccc(Cl)cc1)c1ncsc1S(=O)(=O)c1ccc(Cl)cc1 observable=pIC50 qual== data_value=4.55
molecule="O=C(Nc1ccc(F)cc1)c1nnsc1[S+]([O-])c1ccc(Cl)cc1 (stereo not drawn)" observable=pIC50 qual== data_value=5.15
molecule=O=C(Nc1ccc(F)nc1)c1ncsc1S(=O)(=O)c1ccc(Cl)cc1 observable=pIC50 qual=< data_value=4.30
molecule=O=C(Nc1ccc(F)c(F)c1)c1ncsc1S(=O)(=O)c1ccc(Cl)cc1 observable=pIC50 qual=< data_value=4.30

###

# Test system: C. neoformans
# ASSAY TEXT: Sensititre YeastOne Y09 AST drug combination assay
# Format: cell-based, Cryptococcus neoformans
# STUDY CONDITIONS: 6G-318S at 0.16 ug/ml, C. neoformans H99
OBSERVABLE: reduction of MIC of known antifungal on addition of 6G-318S (fold)

compound="CCC(C)n1ncn(-c2ccc(N3CCN(c4ccc(OCC5COC(Cn6cncn6)(c6ccc(Cl)cc6Cl)O5)cc4)CC3)cc2)c1=O (stereo not drawn) [IZ, itraconazole, reference compound]" data_value=2
compound="Nc1nc(=O)[nH]cc1F [5-FC, 5-fluorocytosine, reference compound]" data_value=2
compound="C[C@@H](c1ncncc1F)[C@](O)(Cn1cncn1)c1ccc(F)cc1F [Vor, Voriconazole, reference compound]" data_value=2

###

# System: C. neoformans
# ASSAY TEXT: Sensititre YeastOne Y09 AST drug combination assay
# Assay type: cell-based, Cryptococcus neoformans
# STUDY CONDITIONS: 6G-318S at 0.16 ug/ml, C. neoformans H99
Numbered stars: 1 amine (or outer) side, 2 acyl side, 3 side chain; on linkers, the order of the positions; unused ones are H or OH. Bridge positions count the residues as written; N and C are the ends. Square brackets hold non-standard residues; d marks the D form. Peptide text beside a SMILES is read from it. * marks the point of attachment. pTerphenylCO(4''-OnC5H11) = CCCCCOc1ccc(-c2ccc(-c3ccc(C(=O)*)cc3)cc2)cc1; Orn(4R-OH,5R-OH) = O=C([C@H](C[C@@H](O)[C@@H](O)N[*:3])N[*:1])[*:2]; hTyr(3S-OH,4S-OH) = N[C@H](C(=O)O)[C@H](O)[C@@H](O)c1ccc(O)cc1; Pro(3S-OH,4S-Me) = C[C@H]1CN[C@H](C(=O)O)[C@H]1O; Hyp = O=C(O)[C@@H]1C[C@@H](O)CN1
OBSERVABLE: reduction of MIC of known antifungal on addition of 6G-318S

molecule="CCCCCOc1ccc(-c2ccc(-c3ccc(C(=O)N[C@H]4C[C@@H](O)[C@@H](O)NC(=O)[C@@H]5[C@@H](O)[C@@H](C)CN5C(=O)[C@H]([C@@H](C)O)NC(=O)[C@H]([C@H](O)[C@@H](O)c5ccc(O)cc5)NC(=O)[C@@H]5C[C@@H](O)CN5C(=O)[C@H]([C@@H](C)O)NC4=O)cc3)cc2)cc1 [AND, Anidulafungin] ({pTerphenylCO(4''-OnC5H11)}-[Orn(4R-OH,5R-OH)]T[Hyp][hTyr(3S-OH,4S-OH)]T[Pro(3S-OH,4S-Me)]; lactam 1-C)" data_value="did not change"
molecule=CC[C@H](C)C[C@H](C)CCCCCCCCC(=O)N[C@H]1C[C@@H](O)[C@@H](NCCN)NC(=O)[C@@H]2[C@@H](O)CCN2C(=O)[C@H]([C@H](O)CCN)NC(=O)[C@H]([C@H](O)[C@@H](O)c2ccc(O)cc2)NC(=O)[C@@H]2C[C@@H](O)CN2C(=O)[C@H]([C@@H](C)O)NC1=O data_value="did not change"

###

# ASSAY TEXT: in vitro
# Format: cell-based, human
# STUDY CONDITIONS: human, CC50 A549
Measured CC50 at 48 h of individual entries
OBSERVABLE: CC50 at 48 h (µM)

molecule=O=C(Nc1ccc(F)cc1)c1nnsc1S(=O)(=O)c1ccc(F)cc1F qual== data_value=65.4
molecule="O=C(Nc1c(F)cc(F)cc1F)c1nnsc1[S+]([O-])c1ccc(Cl)cc1 (stereo not drawn)" qual== data_value=61
molecule=O=C(Nc1ccc(F)cc1)c1nnsc1S(=O)(=O)c1ccc(F)c(F)c1 qual== data_value=61.1
molecule=O=C(Nc1ccc(F)cc1)c1nnc(Sc2ccc(Cl)cc2)s1 qual=> data_value=150
molecule=O=C(Nc1ccc(F)cc1F)c1ncsc1S(=O)(=O)c1ccc(Cl)cc1 qual== data_value=210
molecule=O=C(NCc1ccc(F)cc1)c1nnsc1Sc1ccc(Cl)cc1 qual== data_value=282
molecule="O=C(Nc1ccc(F)cc1)c1nnc([S+]([O-])c2ccc(Cl)cc2)s1 (stereo not drawn)" qual== data_value=28.5
molecule=O=C(Nc1ccc(F)cc1)c1nnsc1S(=O)(=O)c1cccc(C(F)(F)F)c1 qual== data_value=137
molecule=O=C(Nc1ccc(F)cc1F)c1nnsc1Sc1ccc(Cl)cc1 qual== data_value=186

###

Some molecules, each annotated with its measured pIC50.
# TARGET ENTITY: UniProtKB E6R027
# ASSAY TEXT: Split nanoluciferase NnLuc-Prp8 intein splicing assay
# Format: biochemical
pIC50: −log10 of the molar value.
OBSERVABLE: pIC50

molecule=O=C(Nc1cc(F)c(F)c(F)c1)c1nnsc1S(=O)(=O)c1ccc(Cl)cc1 data_value=4.79
molecule=O=C(Nc1ccc(F)cc1)c1nnsc1S(=O)(=O)c1ccc(Cl)cc1Cl data_value=4.68
molecule=O=C(Nc1ccc(F)cc1)c1nnsc1S(=O)(=O)c1ccc(F)cc1F data_value=4.66
molecule=O=C(Nc1ccccc1F)c1nnsc1S(=O)(=O)c1ccc(Cl)cc1 data_value=4.50
molecule="O=C(Nc1ccc(F)cc1)c1nnsc1[S+]([O-])c1ccc(Cl)c(Cl)c1 (stereo not shown)" data_value=4.46
molecule=O=C(Nc1ccc(Br)cc1)c1nnsc1S(=O)(=O)c1ccc(Cl)cc1 data_value=4.81
molecule=O=C(Nc1ccc([N+](=O)[O-])cc1F)c1nnsc1S(=O)(=O)c1ccc(Cl)cc1 data_value=4.71
molecule="Cc1ccc(NC(=O)c2nnsc2[S+]([O-])c2ccc(Cl)cc2)cc1 (stereo not shown)" data_value=5.42
molecule=O=C(Nc1ccc(F)cc1)c1nnsc1S(=O)(=O)c1ccc(F)cc1 data_value=4.63
molecule="O=C(Nc1cc(F)c(F)c(F)c1)c1nnsc1[S+]([O-])c1ccc(Cl)cc1 (stereo not shown)" data_value=5.36
molecule="O=C(Nc1ccc(F)cc1)c1nnsc1[S+]([O-])c1cccc(C(F)(F)F)c1 (stereo not shown)" data_value=4.91
molecule=O=C(Nc1c(F)cc(F)cc1F)c1nnsc1S(=O)(=O)c1ccc(Cl)cc1 data_value=4.80
molecule=O=C(Nc1ccc(C(F)(F)F)cc1Cl)c1nnsc1S(=O)(=O)c1ccc(Cl)cc1 data_value=4.96
molecule=O=C(Nc1ccc(Cl)c(F)c1)c1nnsc1S(=O)(=O)c1ccc(Cl)cc1 data_value=4.70
molecule=O=C(Nc1cc(F)cc(Cl)c1)c1nnsc1S(=O)(=O)c1ccc(Cl)cc1 data_value=4.67
molecule="O=C(Nc1c(F)cc(F)cc1F)c1nnsc1[S+]([O-])c1ccc(Cl)cc1 (stereo not shown)" data_value=5.07
molecule=O=C(Nc1ccc(F)cc1)c1nnsc1S(=O)(=O)c1ccc(F)c(F)c1 data_value=4.63
molecule=O=C(Nc1cc(C(F)(F)F)cc(C(F)(F)F)c1)c1nnsc1S(=O)(=O)c1ccc(Cl)cc1 data_value=4.73
molecule=O=C(Nc1cccc(F)c1)c1nnsc1S(=O)(=O)c1ccc(Cl)cc1 data_value=4.57
